# assay.system: mGlyT-1b (Mus musculus, UniProt P28571)
# Construct: host or cells: Flp-in-CHO
# Sequence (P28571 1-651 isoform P28571-2): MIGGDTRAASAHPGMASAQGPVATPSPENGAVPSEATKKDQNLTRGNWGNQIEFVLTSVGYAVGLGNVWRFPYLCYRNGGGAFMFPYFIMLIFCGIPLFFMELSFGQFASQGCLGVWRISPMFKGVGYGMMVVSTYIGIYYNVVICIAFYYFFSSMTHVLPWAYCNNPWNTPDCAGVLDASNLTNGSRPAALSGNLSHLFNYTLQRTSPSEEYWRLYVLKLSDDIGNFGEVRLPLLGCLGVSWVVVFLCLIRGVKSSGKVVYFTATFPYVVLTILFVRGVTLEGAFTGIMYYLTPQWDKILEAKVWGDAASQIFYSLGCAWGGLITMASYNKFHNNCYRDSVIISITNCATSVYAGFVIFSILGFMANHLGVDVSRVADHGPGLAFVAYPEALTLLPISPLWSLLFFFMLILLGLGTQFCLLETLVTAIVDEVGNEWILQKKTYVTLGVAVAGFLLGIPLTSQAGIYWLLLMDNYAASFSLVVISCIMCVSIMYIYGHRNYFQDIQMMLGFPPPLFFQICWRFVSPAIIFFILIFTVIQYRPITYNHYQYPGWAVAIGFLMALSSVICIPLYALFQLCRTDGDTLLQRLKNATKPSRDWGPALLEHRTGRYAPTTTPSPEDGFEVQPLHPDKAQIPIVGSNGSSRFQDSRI
# test.name: Glycine uptake inhibition assay (mGlyT-1b)
# Assay type: cell-based
# measurement.parameters: GlyT-1 Racemat Mouse/human
pIC50: −log10 of the molar value.
result.type: pIC50

INSERT INTO measurements (compound, numeric_value) VALUES
  ('O=C1NCC(c2ccc(F)cc2)C12CCN(C1(c3ccsc3)CCCCC1)CC2 (racemic) [Example 38]', 7.00);

Just for reference, patent US7265126B2 is where these values come from.
